Ref: the supplement of paper PMC12350171

Known growth AUC normalised to DMSO control of a selection of molecules
# Test system: Salmonella enterica typhimurium
# assayNotes: growth AUC normalised to DMSO control (fraction of control); higher = less growth inhibition, active = hit call of the paper
# experimentalContext: 20 µM
Counter-ions that a name gives are not always drawn.

[
  {
    "molecule": "COc1ccccc1OCCNCC(O)COc1cccc2[nH]c3ccccc3c12 (configuration not stated)",
    "targetOrSystem": "Salmonella enterica typhimurium",
    "growth AUC normalised to DMSO control": 1.02
  },
  {
    "molecule": "CN[C@@H]1[C@H](O)[C@H](NC)[C@H]2O[C@@]3(O)C(=O)C[C@@H](C)O[C@H]3O[C@@H]2[C@H]1O [Spectinomycin dihydrochloride]",
    "targetOrSystem": "Salmonella enterica typhimurium",
    "growth AUC normalised to DMSO control": 0.896
  },
  {
    "molecule": "CC(=O)Oc1cc(C(F)(F)F)ccc1C(=O)O",
    "targetOrSystem": "Salmonella enterica typhimurium",
    "growth AUC normalised to DMSO control": 0.964
  },
  {
    "molecule": "C[C@@H]1CCC[C@H](C)N1NC(=O)c1ccc(Cl)c(S(N)(=O)=O)c1 [Clopamide]",
    "targetOrSystem": "Salmonella enterica typhimurium",
    "growth AUC normalised to DMSO control": 0.976
  },
  {
    "molecule": "Nc1nc(=O)c2c([nH]1)NC[C@@H](CNc1ccc(C(=O)N[C@@H](CCC(=O)O)C(=O)O)cc1)N2C=O [Folinic acid calcium salt]",
    "targetOrSystem": "Salmonella enterica typhimurium",
    "growth AUC normalised to DMSO control": 1
  },
  {
    "molecule": "COc1cc(C(=O)OCCCN2CCCN(CCCOC(=O)c3cc(OC)c(OC)c(OC)c3)CC2)cc(OC)c1OC [Dilazep dihydrochloride]",
    "targetOrSystem": "Salmonella enterica typhimurium",
    "growth AUC normalised to DMSO control": 1
  },
  {
    "molecule": "O=C1NCCN1c1ncc([N+](=O)[O-])s1",
    "targetOrSystem": "Salmonella enterica typhimurium",
    "growth AUC normalised to DMSO control": 0.0187
  },
  {
    "molecule": "COc1cc2nc(N3CCN(C(=O)C4CCCO4)CC3)nc(N)c2cc1OC (configuration not stated) [Terazosin hydrochloride]",
    "targetOrSystem": "Salmonella enterica typhimurium",
    "growth AUC normalised to DMSO control": 0.998
  },
  {
    "molecule": "Clc1ccc(C(Cn2ccnc2)OCc2csc3c(Cl)cccc23)c(Cl)c1 (configuration not stated) [Sertaconazole nitrate]",
    "targetOrSystem": "Salmonella enterica typhimurium",
    "growth AUC normalised to DMSO control": 1.02
  },
  {
    "molecule": "Cc1cc(NC(=O)C2=C(O)c3ccccc3S(=O)(=O)N2C)no1",
    "targetOrSystem": "Salmonella enterica typhimurium",
    "growth AUC normalised to DMSO control": 0.982
  },
  {
    "molecule": "COc1ccc(C2CNC(=O)C2)cc1OC1CCCC1 (configuration not stated)",
    "targetOrSystem": "Salmonella enterica typhimurium",
    "growth AUC normalised to DMSO control": 0.976
  },
  {
    "molecule": "CCCOc1ccccc1-c1nc2[nH]nnc2c(=O)[nH]1",
    "targetOrSystem": "Salmonella enterica typhimurium",
    "growth AUC normalised to DMSO control": 0.998
  },
  {
    "molecule": "COC(=O)C1=C(C)NC(C)=C(C(=O)OC(C)C)C1c1cccc2nonc12 (configuration not stated)",
    "targetOrSystem": "Salmonella enterica typhimurium",
    "growth AUC normalised to DMSO control": 1.01
  },
  {
    "molecule": "CC(C)[N+](C)(CCOC(=O)C1c2ccccc2Oc2ccccc21)C(C)C [Propantheline bromide]",
    "targetOrSystem": "Salmonella enterica typhimurium",
    "growth AUC normalised to DMSO control": 0.974
  },
  {
    "molecule": "O=C(NC(Cc1cc(=O)[nH]c2ccccc12)C(=O)O)c1ccc(Cl)cc1 (configuration not stated) [Rebamipide]",
    "targetOrSystem": "Salmonella enterica typhimurium",
    "growth AUC normalised to DMSO control": 1
  },
  {
    "molecule": "CC[C@@H](CO)NCCN[C@@H](CC)CO [Ethambutol dihydrochloride]",
    "targetOrSystem": "Salmonella enterica typhimurium",
    "growth AUC normalised to DMSO control": 0.943
  },
  {
    "molecule": "O=P(O)(O)C(Cl)(Cl)P(=O)(O)O [Clodronate disodium]",
    "targetOrSystem": "Salmonella enterica typhimurium",
    "growth AUC normalised to DMSO control": 0.986
  }
]
